system: HS 578T breast; test: NCI tumour cell line growth inhibition, 48 h
Below, each of the compounds is paired with its reported TGI value.
Just the number in µM, nothing appended.

[
  {
    "SMILES_RECORD": "O=C(NCc1ccncc1)C12CC3CC(C1)CC(c1ccc(Cl)cc1)(C3)C2",
    "ASSAY_VALUE": 31.7
  }
]

Now, please, on to the next compound.
QUERY: Entry CC1(C)CCC(C)(C)c2c1ccc(O)c2Cc1c(O)ccc2c1C(C)(C)CCC2(C)C : reported TGI = ?
RESULT: 8.85

---

system: UACC-257 melanoma; test: NCI tumour cell line growth inhibition, 48 h
Listing of entries alongside the reported TGI.

[
  {
    "MOLECULE": "Cc1nn(C)cc1P(=S)(c1ccccc1)c1ccccc1",
    "TGI": "> 100 µM"
  },
  {
    "MOLECULE": "Clc1ccc(-c2ccc(-c3nn4c(CNc5ccccc5)nnc4s3)o2)c(Cl)c1",
    "TGI": "> 100 µM"
  },
  {
    "MOLECULE": "CC(=O)OCCOc1cc2c([nH]c3ccccc32)c(C)c2cccc1-2",
    "TGI": "3.74 µM"
  },
  {
    "MOLECULE": "NC1=NCCN1CC(=O)O",
    "TGI": "> 10000 µM"
  },
  {
    "MOLECULE": "Cc1ccc(C(=O)OCC(C)C)cc1N=NN(C)C",
    "TGI": "71.1 µM"
  }
]

QUERY: Dear colleague, I am looking for the recorded TGI of the following molecule: COC1CC(NC(=O)C(F)(F)F)C(OC(C)=O)C(C)O1 (centres undefined)
RESULT: > 100 µM

QUERY: Endpoint output: TGI of CC(=O)O[C@H]1C(=O)[C@@]2(C)[C@H]([C@H](OC(=O)c3ccccc3)[C@]3(O)C[C@H](OC(=O)[C@H](O)[C@@H](NC(=O)C(C)(C)C)c4ccccc4)C(C)=C1C3(C)C)[C@]1(OC(C)=O)CO[C@@H]1C[C@@H]2O . Value?
RESULT: > 10 µM

QUERY: Look up TGI for this molecule: CC(=N\N=C\c1ccccn1)/C(C)=N/N=C(C)/C(C)=N/N=C/c1ccccn1
RESULT: > 100 µM

QUERY: # query: TGI of entry CCOC(=O)[C@@H](C)C[C@H](Cc1ccccc1)NC(=O)c1csc([C@@H](C[C@H](C(C)C)N(C)C(=O)[C@H](CC)NC(=O)[C@H]2CCCCN2C)OC(C)=O)n1
RESULT: > 16.7 µM

QUERY: I would be grateful if you could share the reported TGI for O=C(NCc1ccncc1)C12CC3CC(C1)CC(c1ccc(Cl)cc1)(C3)C2 .
RESULT: 25.1 µM

QUERY: Request the reported TGI associated with CC(C)(C)OC(=O)NC(CO)c1cccc(OCc2ccccc2)c1 (centres undefined)
RESULT: 99.4 µM

QUERY: State the recorded TGI for this entry: N#C/C(=C/Sc1ccccc1)C(=O)O
RESULT: > 100 µM

QUERY: Returns the measured TGI for the input molecule. Input: O=c1[nH]cnc2c1ncn2[C@@H]1C[C@H]1CO
RESULT: > 100 µM

QUERY: Which TGI reading was recorded for the molecule COc1cc(N(Cc2ccc3nc(OC)c(OC)nc3c2)Cc2ccc3nc(OC)c(OC)nc3c2)cc(OC)c1OC ?
RESULT: > 50 µM

Source: PubChem BioAssay (NCI)
